Value source: patent US10130633B2

tested on: HCT116 FOP control reporter cell line; assay: HCT116 FOPFlash control reporter assay (FOP control vector, non-functional TCF elements); format: cell-based; settings: Homo sapiens, HCT-116, 36 h, HCT116 FOP control reporter cells, 36 hours incubation, luciferase expression
outcome-measure: IC50 (µM)

>>> df
                                   molecule  outcome_measure  value_units  comparison_symbol  value
0  CCN1CCN(CC(=O)Nc2cc(C(=O)Nc3nnc(-c4ccccc4)s3)ccc2OC(F)(F)F)CC1 [Example 172]             IC50           µM                  ≥     50
1  CC(C(=O)Nc1cc(C(=O)Nc2ccc(-c3ccc(O)c(F)c3)nc2)ccc1OC(F)(F)F)N1CCOCC1 (stereo not shown) [Example 110]             IC50           µM                  =     42
2  COCc1ccc(C(=O)Nc2nnc(-c3ccccc3C)s2)cc1NC(=O)C1(N2CCN(C)CC2)CC1 [Example 258]             IC50           µM                  =     24
3  COc1ccc(C(=O)Nc2nnc(-c3ccccc3)s2)cc1NC(=O)CN1CCN(C)CC1 [Example 91]             IC50           µM                  =     44
4  O=C(CN1CCOCC1)Nc1cc(C(=O)Nc2nnc(-c3ccccc3)o2)ccc1OC(F)(F)F [Example 191]             IC50           µM                  ≥     50
5  COc1ccc(NC(=O)c2ccc(-c3ccccc3)[nH]2)cc1NC(=O)CN1CCOCC1 [Example 24]             IC50           µM                  ≥     50
6  CC(C(=O)Nc1cc(C(=O)Nc2nnc(-c3ccccc3)s2)ccc1OC(F)F)N1CCN(C)CC1 (stereo not shown) [Example 42]             IC50           µM                  ≥     50

* * *

test system: HCT116 FOP control reporter cell line; experiment: HCT116 FOPFlash control reporter assay (FOP control vector, non-functional TCF elements); type: cell-based; details: Homo sapiens, HCT-116, 36 h, HCT116 FOP control reporter cells, 36 hours incubation, luciferase expression
pIC50: −log10 of the molar value.
outcome-measure: pIC50

>>> print(df.to_string())
                                   molecule                            test_target   value
0  CN1CCN(CC(=O)Nc2cc(C(=O)Nc3nnc(-c4ccccc4)s3)ccc2CS(C)(=O)=O)CC1 [Example 104]  HCT116 FOP control reporter cell line  ≤ 4.30
1  O=C(CN1CCN(C2CC2)CC1)Nc1cc(C(=O)Nc2nnc(-c3ccccc3)s2)ccc1Br [Example 253]  HCT116 FOP control reporter cell line  ≤ 4.30
2  CC(C(=O)Nc1cc(C(=O)Nc2ccc(-c3ccccc3F)nc2)ccc1OC(F)(F)F)N1CCN(C2CC2)CC1 (stereo not drawn) [Example 196]  HCT116 FOP control reporter cell line  ≤ 4.30

* * *

system: HCT116 FOP control reporter cell line; assay: HCT116 FOPFlash control reporter assay (FOP control vector, non-functional TCF elements); format: cell-based; conditions: Homo sapiens, HCT-116, 36 h, HCT116 FOP control reporter cells, 36 hours incubation, luciferase expression
Below, each entry is listed with its recorded IC50.
outcome-measure: IC50

In [3]: df
Out[3]:
                                    molecule                            test_target  outcome_measure    value
 0  O=C(CN1CCOCC1)Nc1cc(NC(=O)c2noc(-c3ccccc3)n2)ccc1OC(F)(F)F [Example 121]  HCT116 FOP control reporter cell line             IC50  ≥ 50 µM
 1  CN1CCN(CC(=O)Nc2cc(C(=O)Nc3nnc(-c4ccccc4)s3)ccc2C(F)(F)F)CC1 [Example 59]  HCT116 FOP control reporter cell line             IC50  ≥ 50 µM
 2  O=C(CN1CCOCC1)Nc1cc(C(=O)Nc2ccc(-c3ccccc3F)nc2)ccc1C(F)(F)F [Example 74]  HCT116 FOP control reporter cell line             IC50  42.2 µM
 3  O=C(Nc1ccc([N+](=O)[O-])cc1Cl)c1cc(Cl)ccc1O [Ref., niclosamide, reference compound]  HCT116 FOP control reporter cell line             IC50   3.1 µM
 4  CN(C)C1(C(=O)Nc2cc(C(=O)Nc3ccc(-c4ccccc4F)nc3)ccc2OC(F)(F)F)CC1 [Example 179]  HCT116 FOP control reporter cell line             IC50  ≥ 50 µM
 5  O=C(Cc1ccccn1)Nc1cc(C(=O)Nc2ccc(-c3ccccc3F)nc2)ccc1OC1CC1 [Example 238]  HCT116 FOP control reporter cell line             IC50  ≥ 50 µM
 6  CC(C(=O)Nc1cc(C(=O)Nc2ccc(-c3ccc(C(F)F)cc3)nc2)ccc1OC(F)(F)F)N1CCOCC1 (stereo not shown) [Example 112]  HCT116 FOP control reporter cell line             IC50  ≥ 50 µM
 7  O=C(CN1CC2CCC(C1)O2)Nc1cc(C(=O)Nc2nnc(-c3ccccc3)s2)ccc1OC(F)F [Example 86]  HCT116 FOP control reporter cell line             IC50  ≥ 50 µM
 8  CC(C(=O)Nc1cc(C(=O)Nc2ccc(-c3ccc(O)cc3)nc2)ccc1OC(F)(F)F)N1CCOCC1 (stereo not shown) [Example 195]  HCT116 FOP control reporter cell line             IC50  ≥ 50 µM
 9  O=C(Nc1ccc(-c2ccccc2F)nc1)c1ccc(F)c(NC(=O)C2(N3CCOCC3)CC2)c1 [Example 77]  HCT116 FOP control reporter cell line             IC50    14 µM
10  CN(C)C1(C(=O)Nc2cc(C(=O)Nc3ccc(-c4cc(F)cc(F)c4)nc3)ccc2OC(F)(F)F)CC1 [Example 251]  HCT116 FOP control reporter cell line             IC50    16 µM
11  Cc1cccc(-c2nnc(NC(=O)c3ccc(OC(F)(F)F)c(NC(=O)CN4CCOCC4)c3)s2)c1 [Example 96]  HCT116 FOP control reporter cell line             IC50  ≥ 50 µM
12  O=C(Nc1ccc(-c2ccccc2F)nc1)c1ccc(OC2CC2)c(NC(=O)C2(N3CCOCC3)CC2)c1 [Example 134]  HCT116 FOP control reporter cell line             IC50   5.2 µM
13  O=C(CN1C[C@@H]2C[C@H]1CO2)Nc1cc(C(=O)Nc2nnc(-c3ccccc3)s2)ccc1OC(F)(F)F [Example 254]  HCT116 FOP control reporter cell line             IC50  ≥ 50 µM
14  O=C(CN1CCOCC1)Nc1cc(C(=O)Nc2ccc(-c3ccccc3F)nc2)ccc1OC1CC1 [Example 133]  HCT116 FOP control reporter cell line             IC50  ≥ 50 µM
15  CN1CCN(C2(C(=O)Nc3cc(C(=O)Nc4nnc(-c5ccccc5)s4)ccc3OC(F)(F)F)CC2)CC1 [Example 52]  HCT116 FOP control reporter cell line             IC50  ≥ 50 µM
16  CN1CCN(C2(C(=O)Nc3cc(C(=O)Nc4ccc(-c5ccccc5F)nc4)ccc3OC3CC3)CC2)CC1 [Example 135]  HCT116 FOP control reporter cell line             IC50  ≥ 50 µM
17  Cc1ccccc1-c1nnc(NC(=O)c2ccc(OC(F)(F)F)c(NC(=O)C3(N4CCOCC4)CC3)c2)s1 [Example 257]  HCT116 FOP control reporter cell line             IC50  ≥ 50 µM
18  COCc1ccc(C(=O)Nc2nnc(-c3ccccc3)s2)cc1NC(=O)CN1CCN(C)CC1 [Example 46]  HCT116 FOP control reporter cell line             IC50  ≥ 50 µM
19  Cc1ccc(C(=O)Nc2nnc(-c3ccccc3)s2)cc1NC(=O)C1(N2CCN(C)CC2)CC1 [Example 157]  HCT116 FOP control reporter cell line             IC50  ≥ 50 µM
20  Cc1ccccc1-c1nnc(NC(=O)c2ccc(OC3CC3)c(NC(=O)CN3CCN(C)CC3)c2)s1 [Example 264]  HCT116 FOP control reporter cell line             IC50  ≥ 50 µM
21  CC(C(=O)Nc1cc(C(=O)Nc2ccc(-c3cccc(F)c3)nc2)ccc1OC(F)(F)F)N1C[C@@H]2C[C@H]1CO2 (stereo partly shown) [Example 192]  HCT116 FOP control reporter cell line             IC50  12.4 µM
